# measurement-protocol: chemical genetic growth profiling, strain panel (AID 1159580);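 further: tested at 20 µM; growth read once vehicle control cultures reached saturation at 30 °C; 1 = growth at the plate median or of vehicle wells; lower values mean less growth of the strain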
# experimental-setup: S. cerevisiae deletion strains, growth OD, locus YMR125W, strain sto1, stronger effect = lower value
Screen size: about 5,500 compounds; about 2,000 (36%) were called active. About 18% were inconclusive and are not listed. This is one part of the list.
Some molecules, each annotated with its measured normalized growth.
Form: value (number only, do not type unit).

| molecule | normalized growth |
| --- | --- |
| CC(=O)Oc1c2c(c(CC=C(C)C)c3c1C(=O)C1=C[C@@H]4CC5C(C)(C)OC(C/C=C(\C)C(=O)O)(C4=O)[C@@]15O3)OC(C)(CCC=C(C)C)C=C2 (stereo partly specified) | 0.993 |

Let us move to another entry and its normalized growth.
q: Suppose we examine the molecule `COc1cc(C)c2c(=O)cc(-c3ccccc3)oc2c1` ; what normalized growth value has been reported?
a: 0.929

====

# measurement-protocol: chemical genetic growth profiling, strain panel (AID 1159580);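 further: tested at 20 µM; growth read once vehicle control cultures reached saturation at 30 °C; 1 = growth at the plate median or of vehicle wells; lower values mean less growth of the strain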
# experimental-setup: S. cerevisiae deletion strains, growth OD, locus YIL066C, strain RNR3, stronger effect = lower value
The campaign covered roughly 5,500 compounds. About 2,000 (36%) were called active. Roughly 18% stayed inconclusive and do not appear here. This is one part of the list.
Some compounds, each annotated with its measured normalized growth.
Form: value (number only, do not type unit).

Worked set:
| compound | value-kind | numeric-value |
| --- | --- | --- |
| NC(N)=NCCCCN=C(N)N | normalized growth | 0.969 |
| COc1ccc2oc(-c3ccccc3)c(OC)c(=O)c2c1 | normalized growth | 0.882 |
| NC(N)=NCCN1CCCCCCC1 | normalized growth | 1.01 |
| CCN1C[C@@]2(COC)C3[C@@H](OC)[C@H]4[C@@H]1[C@]3(C(OC)C[C@H]2O)C1C[C@@]2(O)[C@H](OC(=O)c3ccccc3)C1[C@]4(OC(C)=O)[C@@H](O)[C@@H]2OC (stereo partly specified) | normalized growth | 1.04 |
| CC(=O)NCCc1c[nH]c2ccc(O)cc12 | normalized growth | 0.956 |

q: Suppose we examine the compound `O=C(O)CCCCCCCC(=O)O` ; what normalized growth value has been reported?
a: 0.976

q: Moving on to O=C(O)C(O)C(O)C(=O)O (stereo unspecified)
a: 0.996

q: Moving on to `NCCCC(=O)O`
a: 1.01

q: Moving on to COc1ccc(CCC(=O)c2c(O)cc(O[C@@H]3O[C@H](CO)C(O)[C@H](O)C3O[C@@H]3O[C@@H](C)[C@H](O)[C@@H](O)[C@H]3O)cc2O)cc1O (stereo partly specified)
a: 0.994

q: Moving on to `C1N2CN3CN1CN(C2)C3`
a: 0.984

q: Moving on to `N[C@@H](C(=O)O)[C@@H](O)[C@H](O)[C@H](O)CO`
a: 1.01

====

# measurement-protocol: chemical genetic growth profiling, strain panel (AID 1159580);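 further: tested at 20 µM; growth read once vehicle control cultures reached saturation at 30 °C; 1 = growth at the plate median or of vehicle wells; lower values mean less growth of the strain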
# experimental-setup: S. cerevisiae deletion strains, growth OD, locus YNL307C, strain MCK1, stronger effect = lower value
The campaign covered roughly 5,500 compounds. About 2,000 (36%) were called active. About 18% were inconclusive and are not listed. The list shows a part of the results.
# note: exactly 1 is not below, so it is false (0); use true (1) for normalized growth strictly under it

| molecule | category-label |
| --- | --- |
| CC(=O)O[C@H]1C[C@@]2(C)[C@@H](C[C@@H](O)C3[C@]2(C)CC[C@H]2[C@H](C)[C@H](O)CC[C@]32C)/C1=C(/CCC=C(C)C)C(=O)O (stereo not given in full) | false (0) |
| C[C@]12CCC3C(CC[C@H]4C[C@H](O)CC[C@]34C)C1CC[C@@H]2O (stereo not given in full) | true (1) |
| Cc1cc(CC(=O)O)n(C)c1C(=O)c1ccc(Cl)cc1 | true (1) |

q: Please determine if COc1ccc2c(c1)OCC(Cc1ccc(OC)c(OC)c1)C2=O (stereo not given) is below 1 in terms of normalized growth.
a: true (1)
